Assay: AP1 Signaling Pathway (AID 357);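 further: ME-180 reporter cells stimulated with EGF at its EC50 level; on the % scale 0 is the no-effect control and ±100 the full control effect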
Conditions: ME-180 (cervical carcinoma) AP-1-bla reporter, EGF-induced, beta-lactamase ratio, 5 h; at 17.2 µM (top of the series) unless noted
Inconclusive results are not listed. Activity calls are given as the source filed them. The call rests on the fitted dose curve; in most records, active means well fitted curve in either direction with a large enough effect (not every such curve was filed as active); inconclusive means small, poorly fitted or top-dose-only effect, or another doubt; inactive means flat fitted curve, though single readings scatter.
Property Measured: activity change, negative = inhibition

{"columns": ["Compound", "Result Value"],
 "data": [
  ["Cc1ccc(N2CN=c3s/c(=C\\c4cccnc4)c(=O)n3C2)cc1", "-7.29% (inactive)"],
  ["COC(=O)c1[nH]c(C)c(/C(O)=C2\\C(=O)C(=O)N(CCN3CCOCC3)C2c2ccccc2OC)c1C (stereo not drawn)", "3.47% (inactive)"],
  ["Cc1nc2ccccc2cc1O", "13.6% (inactive)"],
  ["CC1(C)Cc2c(C#N)c(SCc3nc4ccccc4[nH]3)nc(N3CCOCC3)c2CO1", "-22.7% (inactive)"],
  ["O=C(/C=C/c1ccccc1)c1ccccc1", "19.8% (inactive)"],
  ["C[C@@H]1C[C@H](Nc2ccccc2)c2ccccc2N1C(=O)c1cccnc1", "5.62% (inactive)"],
  ["CC(C)N1CC=C2C(C#N)=C(N)C(C#N)(C#N)C(c3ccccc3)C2C1 (stereo not drawn)", "26.3% (inactive)"],
  ["COc1cccc(C(=O)N2CCN(Cc3ccccn3)CC2)c1OC", "2.17% (inactive)"],
  ["CC1(C)Cc2nc3sc4c(N(CCO)CCO)ncnc4c3cc2CO1", "1.68% (inactive)"],
  ["COc1cc(-c2nn3c(-c4cccnc4)nnc3s2)cc(OC)c1OC", "-0.374% (inactive)"],
  ["CCOC(=O)C1CCN(c2nc3ccccc3nc2C(C#N)C(=O)OCCOC)CC1 (stereo not drawn)", "-17.6% (inactive)"],
  ["Oc1oc(-c2ccco2)nc1C=Nc1cccc(Cl)c1", "-27% (inactive)"],
  ["COc1ccc(-c2onc(C)c2-c2ccccc2)c(O)c1", "-16.7% (inactive)"],
  ["CN(C)CCCN1C(=O)C(O)=C(C(=O)c2cc3ccccc3o2)C1c1ccccc1 (stereo not drawn)", "8.55% (inactive)"],
  ["O=S(=O)(c1ccc2ccccc2c1)N(CC(O)CN1CCOCC1)c1ccccc1 (stereo not drawn)", "-11.7% (inactive)"],
  ["Cc1nn(C)cc1C1C2=C(CC(C)(C)CC2=O)OC2=C1C(=O)CC(C)(C)C2", "3.4% (inactive)"],
  ["COCCOCCOCCC(=O)NC1CC2CCC1(C)C2(C)C (stereo not drawn)", "13.7% (inactive)"],
  ["Cc1ccc2cc(CN(C(=O)c3ccco3)c3ccccc3C)c(=O)[nH]c2c1", "-25.5% (inactive)"],
  ["Cc1nnc(SCC(=O)N2CCC(C(N)=O)CC2)s1", "4.41% (inactive)"],
  ["N#Cc1cc(Oc2cccc3cccnc23)c(-n2nnc3ccccc32)cc1C#N", "11.4% (inactive)"],
  ["CCOc1cccc(-c2nnc3sc(-c4ccco4)nn23)c1", "-1.16% (inactive)"],
  ["CC(C)NC(=O)N1CCOCCOCCN(C(=O)NC(C)C)CCOCCOCC1", "8.52% (inactive)"],
  ["N[C@H](Cc1cccc(-c2ccccc2CP(=O)(O)O)c1)C(=O)O", "8.92% [at 38 µM] (inactive)"]
]}

---

Test system: Dd2
Assay: qHTS profiling for inhibitors of Plasmodium falciparum proliferation (AID 504749); further: nearly all actives have a fitted effect of over 60% in size
Details: P. falciparum in erythrocytes, SYBR Green DNA, 72 h; series mostly up to 28.7 µM
Inconclusive results are not listed. Activity calls are given as the source filed them. Calls come from the whole dose curve; as a rule, active = well fitted inhibition curve with a large enough effect; inconclusive = small, poorly fitted or top-dose-only effect; inactive = flat fitted curve, though single readings scatter.
Possible outcomes: true (1) for active, false (0) for inactive

{"columns": ["Molecule", "Assigned Class"],
 "data": [
  ["NCCCCC(N)C(=O)O (configuration not stated)", "false (0)"],
  ["CC1=C(/C=C/C(C)=C\\C=C\\C(C)=C\\C=C\\C=C(C)\\C=C\\C=C(C)\\C=C\\C2=C(C)C[C@@H](O)CC2(C)C)C(C)(C)C[C@H](O)C1", "true (1)"],
  ["CC(=O)N1CC(O)CC1C(=O)O (configuration not stated)", "false (0)"],
  ["CN(C)CC/C=C1\\c2ccccc2COc2ccc(CC(=O)O)cc21", "false (0)"],
  ["CC[C@@H](C)C(N)C(=O)O (some centres not stated)", "false (0)"],
  ["C/C(=C(/CCOC(=O)C(C)C)SS/C(CCOC(=O)C(C)C)=C(\\C)N(C=O)Cc1cnc(C)nc1N)N(C=O)Cc1cnc(C)nc1N", "false (0)"],
  ["CC(C)C(=O)OCC(=O)[C@@]12OC(C3CCCCC3)O[C@@H]1CC1C3CCC4=CC(=O)C=C[C@]4(C)C3[C@@H](O)C[C@@]12C (some centres not stated)", "true (1)"],
  ["O=c1ccn(C2OC(COP(=O)(O)OC3C(CO)OC(n4ccc(=O)[nH]c4=O)C3O)C(O)C2O)c(=O)[nH]1 (configuration not stated)", "false (0)"],
  ["C=C1N[C@]2(C(=O)COC(C)=O)[C@@H](C[C@H]3[C@@H]4CCC5=CC(=O)C=C[C@]5(C)[C@H]4[C@@H](O)C[C@@]32C)O1", "false (0)"],
  ["C#C[C@@]1(O)CC[C@@H]2[C@H]3CCC4=C/C(=N\\O)CC[C@H]4[C@@H]3CC[C@]21CC", "false (0)"],
  ["CC1(C)SC2[C@@H](N=CN3CCCCCC3)C(=O)N2[C@H]1C(=O)O (some centres not stated)", "false (0)"],
  ["C[C@@H]1CCN(C(=O)[C@H](CCCNC(=N)N)NS(=O)(=O)c2cccc3c2NC[C@H](C)C3)[C@@H](C(=O)O)C1", "false (0)"],
  ["O=C1Oc2ccccc2C(=O)C1C(CC(O)c1ccc(-c2ccc(Br)cc2)cc1)c1ccccc1 (configuration not stated)", "false (0)"],
  ["CNC(=O)C(N)CSC(C)C1=C(C)c2cc3[n-]c(cc4nc(cc5[n-]c(cc1n2)c(C)c5CCC(=O)O)C(CCC(=O)O)=C4C)c(C)c3C(C)SCC(N)C(=O)NC.[Fe+2] (configuration not stated)", "false (0)"],
  ["NC(C(=O)O)c1ccc(O)cc1 (configuration not stated)", "false (0)"],
  ["C[C@]12CC[C@@H]3c4ccc(O)cc4CC[C@H]3[C@@H]1C[C@H](O)C2O (some centres not stated)", "false (0)"],
  ["O=C(OC[C@@H]1O[C@@](O)(COC(=O)c2cccnc2)[C@H](OC(=O)c2cccnc2)[C@H]1OC(=O)c1cccnc1)c1cccnc1", "false (0)"],
  ["CO[C@H]1/C=C/O[C@@]2(C)Oc3c(C)c(O)c4c(O)c(c5c(c4c3C2=O)NC2(CCN(CC(C)C)CC2)N=5)=NC(=O)/C(C)=C\\C=C\\[C@H](C)[C@H](O)[C@@H](C)[C@@H](O)[C@@H](C)[C@H](OC(C)=O)[C@@H]1C", "true (1)"],
  ["C=C1C(=O)O[C@@H]2[C@@H]1CC/C(C)=C\\CC[C@@]1(C)O[C@H]21", "false (0)"],
  ["CCC(=O)O[C@]1(C(=O)CCl)[C@@H](C)CC2C3C[C@H](F)C4=CC(=O)C=CC4(C)[C@@]3(F)C(O)CC21C (some centres not stated)", "true (1)"],
  ["Nc1nc(Cl)nc2c1ncn2[C@@H]1O[C@H](CO)[C@H](O)C1F (some centres not stated)", "false (0)"],
  ["CCC(C)C(N)C(=O)O (configuration not stated)", "false (0)"],
  ["O=C(NC(CO)C(O)c1ccc([N+](=O)[O-])cc1)C(Cl)Cl (configuration not stated)", "true (1)"],
  ["OCC(CO)NC1C[C@](O)(CO)[C@@H](O)[C@H](O)[C@H]1O (some centres not stated)", "false (0)"],
  ["C=CC1CN2CCC1CC2[C@@H](O)c1ccnc2ccc(OC)cc12 (some centres not stated)", "true (1)"],
  ["OC[C@@H]1O[C@](CO)(O[C@H]2O[C@H](CO)[C@@H](O)[C@H](O)[C@H]2O)[C@H](O)[C@H]1O", "false (0)"],
  ["CCN(CC)C(=O)[C@@]1(c2ccccc2)C[C@@H]1CN", "false (0)"],
  ["C[n+]1c2cc(N)ccc2cc2ccc(N)cc21", "true (1)"],
  ["CCC(C(=O)O)C1OC(C(C)C(O)C(C)C(=O)C(CC)C2OC3(C=CC(O)C4(CCC(C)(C5CCC(O)(CC)C(C)O5)O4)O3)C(C)CC2C)C(C)CC1C (configuration not stated)", "true (1)"],
  ["O=C1[C@@H]2C[C@@H]3C[C@H]1C[C@@](O)(C3)C2", "false (0)"],
  ["Clc1ccc(CS[C@@H](Cn2ccnc2)c2ccc(Cl)cc2Cl)cc1", "true (1)"],
  ["Nc1ncn(C2C[C@H](O)[C@@H](CO)O2)c(=O)n1 (some centres not stated)", "false (0)"],
  ["Cc1ccccc1N1C(=O)c2cc(N)ccc2N/C1=C\\F", "false (0)"],
  ["CC1C(=O)C(=O)C=CN1C (configuration not stated)", "false (0)"],
  ["C=C[C@H]1CN2CCC1C[C@H]2[C@H](O)c1ccnc2ccc(OC)cc12 (some centres not stated)", "true (1)"],
  ["CCC[C@H]1C[C@H](C(=O)N[C@@H]([C@H]2O[C@@H](SC)[C@@H](O)[C@@H](O)[C@@H]2O)[C@H](C)Cl)N(C)C1", "true (1)"],
  ["NC(CSSCC(N)C(=O)O)C(=O)O (configuration not stated)", "false (0)"]
]}
